measured.target: UniProt P09874
Sequence (P09874 whole entry): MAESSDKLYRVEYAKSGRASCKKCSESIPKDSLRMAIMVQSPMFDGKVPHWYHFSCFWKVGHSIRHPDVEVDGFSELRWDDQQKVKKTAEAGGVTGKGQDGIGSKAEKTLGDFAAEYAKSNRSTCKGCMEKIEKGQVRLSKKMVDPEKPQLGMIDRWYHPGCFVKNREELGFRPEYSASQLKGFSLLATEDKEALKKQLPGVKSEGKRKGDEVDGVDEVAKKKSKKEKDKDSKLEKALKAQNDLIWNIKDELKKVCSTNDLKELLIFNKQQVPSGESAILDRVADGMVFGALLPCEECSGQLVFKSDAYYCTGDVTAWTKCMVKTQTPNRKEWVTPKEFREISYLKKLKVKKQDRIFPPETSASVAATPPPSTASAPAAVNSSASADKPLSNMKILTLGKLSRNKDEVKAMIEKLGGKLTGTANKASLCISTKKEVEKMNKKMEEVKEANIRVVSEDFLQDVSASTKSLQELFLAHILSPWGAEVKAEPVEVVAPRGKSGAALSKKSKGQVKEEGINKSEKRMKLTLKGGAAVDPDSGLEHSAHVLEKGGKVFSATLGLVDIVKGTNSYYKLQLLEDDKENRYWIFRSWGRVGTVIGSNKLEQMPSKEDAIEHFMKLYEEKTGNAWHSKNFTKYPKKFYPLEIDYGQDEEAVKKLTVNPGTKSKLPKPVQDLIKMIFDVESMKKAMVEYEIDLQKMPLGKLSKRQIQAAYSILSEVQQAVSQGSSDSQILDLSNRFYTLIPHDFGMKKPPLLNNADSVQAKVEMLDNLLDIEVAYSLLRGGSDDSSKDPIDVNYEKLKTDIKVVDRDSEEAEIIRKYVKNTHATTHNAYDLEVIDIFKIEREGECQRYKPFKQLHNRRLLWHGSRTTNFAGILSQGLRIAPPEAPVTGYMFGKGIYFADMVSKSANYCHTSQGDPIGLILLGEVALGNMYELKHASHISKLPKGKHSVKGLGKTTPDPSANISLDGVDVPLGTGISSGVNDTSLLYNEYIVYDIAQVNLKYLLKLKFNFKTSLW
protocol.details: Inhibition of recombinant human PARP1 using NAD+ as substrate incubated for 1 hr by ELISA
measured.metric: log10 IC50 (log10 of the value in nM)

[[record]]
entry_smiles = "C[C@H]1CN(C(=O)c2cc(Cn3c(=O)[nH]c(=O)c4ccccc43)ccc2F)CCN1"
measured_target = "UniProt P09874"
measured_metric = "log10 IC50"
numeric_result = 1.43

[[record]]
entry_smiles = "CC(C)=CCN1CCN(C(=O)c2cc(Cn3c(=O)[nH]c(=O)c4ccccc43)ccc2F)C[C@@H]1C"
measured_target = "UniProt P09874"
measured_metric = "log10 IC50"
numeric_result = 1.30

[[record]]
entry_smiles = "CC(C)CN1CCN(C(=O)c2cc(Cn3c(=O)[nH]c(=O)c4ccccc43)ccc2F)C[C@H]1C"
measured_target = "UniProt P09874"
measured_metric = "log10 IC50"
numeric_result = 0.45

[[record]]
entry_smiles = "CC[C@H]1CN(C(=O)c2cc(Cn3c(=O)[nH]c(=O)c4ccccc43)ccc2F)CCN1C(C)C"
measured_target = "UniProt P09874"
measured_metric = "log10 IC50"
numeric_result = 1.57

[[record]]
entry_smiles = "CCCN1CCN(C(=O)c2cc(Cn3c(=O)[nH]c(=O)c4ccccc43)ccc2F)C[C@H]1CC"
measured_target = "UniProt P09874"
measured_metric = "log10 IC50"
numeric_result = 1.15

[[record]]
entry_smiles = "CC[C@@H]1CN(C(=O)c2cc(Cn3c(=O)[nH]c(=O)c4ccccc43)ccc2F)CCN1"
measured_target = "UniProt P09874"
measured_metric = "log10 IC50"
numeric_result = 1.15

[[record]]
entry_smiles = "CC[C@H]1CN(C(=O)c2cc(Cn3c(=O)[nH]c(=O)c4ccccc43)ccc2F)CCN1C(=O)C1CC1"
measured_target = "UniProt P09874"
measured_metric = "log10 IC50"
numeric_result = 1.38

[[record]]
entry_smiles = "CCC(=O)N1CCN(C(=O)c2cc(Cn3c(=O)[nH]c(=O)c4ccccc43)ccc2F)C[C@H]1CC"
measured_target = "UniProt P09874"
measured_metric = "log10 IC50"
numeric_result = -0.08

[[record]]
entry_smiles = "CC[C@@H]1CN(C(=O)c2cc(Cn3c(=O)[nH]c(=O)c4ccccc43)ccc2F)CCN1CC1CC1"
measured_target = "UniProt P09874"
measured_metric = "log10 IC50"
numeric_result = 0.12

[[record]]
entry_smiles = "CC[C@@H]1CN(C(=O)c2cc(Cn3c(=O)[nH]c(=O)c4ccccc43)ccc2F)CCN1C(C)=O"
measured_target = "UniProt P09874"
measured_metric = "log10 IC50"
numeric_result = 1.33

[[record]]
entry_smiles = "CC[C@@H]1CN(C(=O)c2cc(Cn3c(=O)[nH]c(=O)c4ccccc43)ccc2F)CCN1C"
measured_target = "UniProt P09874"
measured_metric = "log10 IC50"
numeric_result = 1.60

[[record]]
entry_smiles = "CC[C@@H]1CN(C(=O)c2cc(Cn3c(=O)[nH]c(=O)c4ccccc43)ccc2F)CCN1CC(F)(F)F"
measured_target = "UniProt P09874"
measured_metric = "log10 IC50"
numeric_result = 1.22

[[record]]
entry_smiles = "C[C@H]1CN(C(=O)c2cc(Cn3c(=O)[nH]c(=O)c4ccccc43)ccc2F)CCN1CC1CC1"
measured_target = "UniProt P09874"
measured_metric = "log10 IC50"
numeric_result = 0.48

[[record]]
entry_smiles = "C[C@@H]1CN(C(=O)c2cc(Cn3c(=O)[nH]c(=O)c4ccccc43)ccc2F)CCN1CC1CC1"
measured_target = "UniProt P09874"
measured_metric = "log10 IC50"
numeric_result = 0.66

[[record]]
entry_smiles = "CCCN1CCN(C(=O)c2cc(Cn3c(=O)[nH]c(=O)c4ccccc43)ccc2F)C[C@@H]1CC"
measured_target = "UniProt P09874"
measured_metric = "log10 IC50"
numeric_result = 1.44

[[record]]
entry_smiles = "C/C=C/CN1CCN(C(=O)c2cc(Cn3c(=O)[nH]c(=O)c4ccccc43)ccc2F)C[C@@H]1C"
measured_target = "UniProt P09874"
measured_metric = "log10 IC50"
numeric_result = 1.39

[[record]]
entry_smiles = "CC[C@@H]1CN(C(=O)c2cc(Cn3c(=O)[nH]c(=O)c4ccccc43)ccc2F)CCN1CC"
measured_target = "UniProt P09874"
measured_metric = "log10 IC50"
numeric_result = -0.29

